Reference source for all entries: patent US20240239790A1

Form field: hepatocyte CLint at 1 uM (one value per entry).
# Procedure Details: Hepatocyte Stability Assay, human hepatocytes
# Assay type: in vitro ADME
# Assay Setup: both sexes, cryopreserved hepatocytes, pH 7.3; human hepatocytes 0.7 million cells per mL, 1 uM compound

Compound	hepatocyte CLint at 1 uM
CNC(=O)COc1cnc(N[C@H]2CC[C@@H](Oc3nc(N4CCOCC4)cc4ncccc34)CC2)nc1	< 8.2 µL/min/1e6 cells

input: Suppose we examine the compound "NCCOc1cnc(N[C@H]2CC[C@@H](Oc3nc(N4CCOCC4)cc4ncccc34)CC2)nc1" ; what hepatocyte CLint at 1 uM value has been reported?
output: < 8.2 µL/min/1e6 cells

input: Look up hepatocyte CLint at 1 uM: "Cn1c(=O)n(C2CCOCC2)c2nc(N[C@H]3CC[C@@H](Oc4nc(N5CCOCC5)cc5ncccc45)CC3)ncc21"
output: > 8.2 µL/min/1e6 cells
